I'd appreciate it if you could supply AC50 values for the items below.
Target: ORF 73 (Human herpesvirus 8)
Sequence (O40947 whole entry): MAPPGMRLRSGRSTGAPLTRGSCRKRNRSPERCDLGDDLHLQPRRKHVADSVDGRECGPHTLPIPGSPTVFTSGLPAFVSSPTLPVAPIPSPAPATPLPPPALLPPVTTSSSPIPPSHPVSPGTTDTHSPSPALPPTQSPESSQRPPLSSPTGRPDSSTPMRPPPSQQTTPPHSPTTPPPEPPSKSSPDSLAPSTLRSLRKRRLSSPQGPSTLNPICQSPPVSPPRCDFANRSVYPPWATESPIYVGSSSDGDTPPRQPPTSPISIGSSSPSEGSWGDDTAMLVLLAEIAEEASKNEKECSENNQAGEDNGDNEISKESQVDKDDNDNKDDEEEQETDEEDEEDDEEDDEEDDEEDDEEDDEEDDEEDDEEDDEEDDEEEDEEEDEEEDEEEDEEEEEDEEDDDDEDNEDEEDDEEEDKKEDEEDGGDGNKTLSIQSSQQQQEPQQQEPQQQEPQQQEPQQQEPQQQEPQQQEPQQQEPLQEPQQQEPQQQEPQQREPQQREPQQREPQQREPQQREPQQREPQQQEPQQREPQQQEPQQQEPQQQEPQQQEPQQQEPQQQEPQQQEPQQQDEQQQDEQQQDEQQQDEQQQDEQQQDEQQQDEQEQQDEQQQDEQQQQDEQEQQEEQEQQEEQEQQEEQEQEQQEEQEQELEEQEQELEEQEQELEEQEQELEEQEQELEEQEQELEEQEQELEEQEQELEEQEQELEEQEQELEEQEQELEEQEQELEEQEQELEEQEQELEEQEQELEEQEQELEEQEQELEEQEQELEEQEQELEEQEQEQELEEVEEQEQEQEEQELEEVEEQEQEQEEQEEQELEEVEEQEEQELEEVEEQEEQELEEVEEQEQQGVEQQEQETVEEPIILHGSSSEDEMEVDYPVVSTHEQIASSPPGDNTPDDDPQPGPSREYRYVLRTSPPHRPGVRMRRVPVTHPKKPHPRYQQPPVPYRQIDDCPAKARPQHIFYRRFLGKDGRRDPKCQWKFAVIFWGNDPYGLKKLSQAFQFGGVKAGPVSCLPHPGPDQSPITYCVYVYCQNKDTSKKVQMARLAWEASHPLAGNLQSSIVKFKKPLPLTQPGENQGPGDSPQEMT
Experiment: KSHV LANA DNA-binding disruption – biochemical, fluorescence polarization, cherry-picked samples, dose response (AID 504725);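 also: fluorescence polarization of a labeled DNA duplex reporting LANA DNA binding; potency is for inhibitors that block LANA binding to the DNA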
Parameters: species or system Human gammaherpesvirus 8
The source made the active and inactive calls.

-- ask Name the recorded AC50 for CC(=O)Oc1ccc2c(c1)Oc1cc(OC(C)=O)ccc1C21OC(=O)c2ccccc21 [FLUORESCEIN DIACETATE] .
-- reply 0.042 µM (active)

-- ask Name the recorded AC50 for CN(C)c1ccc(O)c2c1CC1CC3[C@@H](N(C)C)C(O)=C(C(N)=O)C(=O)[C@]3(O)C(O)=C1C2=O (stereo partly specified) .
-- reply 25.6 µM (active)

-- ask Name the recorded AC50 for O=S(=O)(O)c1cc(Cl)cc(N=Nc2ccc(O)cc2O)c1O .
-- reply 70.2 µM (active)

-- ask Name the recorded AC50 for O=C(O)c1ccccc1C1=Nc2ccc(O)cc2Oc2cc(O)ccc21 .
-- reply 5.76 µM (active)

-- ask Name the recorded AC50 for CCN(CC)CCN1C(=O)c2cccc3cc(N)cc(c23)C1=O .
-- reply 17.1 µM (active)

-- ask Name the recorded AC50 for O=C(O)c1cccc(-n2cccc2/C=C2/NC(=O)N(c3ccc(Cl)cc3)C2=O)c1 .
-- reply 23.3 µM (active)

====

Biological target: Neuropeptides B/W receptor type 1 (Homo sapiens, UniProt P48145)
Sequence (P48145 whole entry): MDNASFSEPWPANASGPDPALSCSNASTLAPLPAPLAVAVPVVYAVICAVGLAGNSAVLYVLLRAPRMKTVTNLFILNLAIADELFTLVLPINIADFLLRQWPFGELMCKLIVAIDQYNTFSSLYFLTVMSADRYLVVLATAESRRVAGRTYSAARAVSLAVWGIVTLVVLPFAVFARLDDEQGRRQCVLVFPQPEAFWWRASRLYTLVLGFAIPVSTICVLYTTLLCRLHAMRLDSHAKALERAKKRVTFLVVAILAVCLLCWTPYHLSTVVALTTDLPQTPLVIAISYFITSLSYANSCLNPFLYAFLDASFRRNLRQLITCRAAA
Assay: Fluorescence-based dose response cell-based high throughput screening assay to identify antagonists of the G-protein coupled receptor 7 (GPR7). [Related pubchem assays: 1952 (Screening assay (GPR7 antagonists).), 1880 (Summary AID.)]
Type: functional
I'd appreciate it if you could supply IC50 values for the items below.

-- ask Name the recorded IC50 for O=[N+]([O-])c1ccc(N2CCN(Cc3ccccc3)CC2)nc1 .
-- reply 33.4 µM (not active)

-- ask Name the recorded IC50 for O=C(c1ccc2c(c1)OCO2)N(CC1CCCO1)C1(C(=O)NC2CCCC2)CCCCC1 (centres undefined) .
-- reply > 43.8 µM (not active)

-- ask Name the recorded IC50 for CCOC(=O)CSc1nnc(-c2ccc(S(=O)(=O)NCc3cccs3)cc2)o1 .
-- reply > 43.8 µM (not active)

-- ask Name the recorded IC50 for CCCN(CCC)CCOc1cc(C)ccc1C(C)C .
-- reply 10.9 µM (not active)

====

Target: UniProtKB Q9H0H5
Sequence (Q9H0H5 whole entry): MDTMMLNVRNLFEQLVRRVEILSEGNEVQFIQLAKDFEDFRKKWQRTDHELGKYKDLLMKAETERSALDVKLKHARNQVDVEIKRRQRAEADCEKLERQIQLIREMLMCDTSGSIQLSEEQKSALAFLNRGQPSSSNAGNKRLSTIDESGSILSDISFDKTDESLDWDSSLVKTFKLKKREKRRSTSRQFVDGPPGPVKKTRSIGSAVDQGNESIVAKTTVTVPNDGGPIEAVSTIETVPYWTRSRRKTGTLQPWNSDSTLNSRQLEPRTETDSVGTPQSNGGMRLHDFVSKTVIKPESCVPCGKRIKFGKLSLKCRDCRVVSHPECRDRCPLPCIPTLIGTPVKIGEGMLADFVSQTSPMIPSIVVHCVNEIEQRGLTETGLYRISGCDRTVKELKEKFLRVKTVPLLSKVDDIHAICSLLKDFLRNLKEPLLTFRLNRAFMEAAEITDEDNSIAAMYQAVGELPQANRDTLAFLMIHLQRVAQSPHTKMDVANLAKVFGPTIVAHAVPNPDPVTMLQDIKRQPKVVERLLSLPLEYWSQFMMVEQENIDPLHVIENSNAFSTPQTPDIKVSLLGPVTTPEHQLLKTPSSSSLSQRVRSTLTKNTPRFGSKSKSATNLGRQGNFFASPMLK
Experiment: blockers of MgcRacGAP-driven Rac1 GTP hydrolysis – biochemical, ADP Hunter fluorescence, primary and confirmatory, confirmation (AID 624330)
Type: functional
The source made the active and inactive calls.
reported.metric: IC50

-- ask Name the recorded IC50 for CCCN=C(S)Nc1ccc(Nc2ccccc2)cc1 .
-- reply 82.4 µM (active)

-- ask Name the recorded IC50 for COc1cc(/C=C/C(=O)OCC(=O)N2CCN(C(=O)c3ccco3)CC2)ccc1O .
-- reply 44.8 µM (active)

-- ask Name the recorded IC50 for COc1ccc(NC(=O)n2ncc3cc(Cl)ccc32)cc1OC .
-- reply 230 µM (active)

-- ask Name the recorded IC50 for COc1ccc(-c2c[nH]nc2-c2ccc(O)cc2O)cc1OC .
-- reply 60.2 µM (active)

-- ask Name the recorded IC50 for COCCNC(=S)Nc1cc(OC)c(OC)cc1C#N .
-- reply 204 µM (active)

-- ask Name the recorded IC50 for COc1cc(/C(C)=N/N2CCN(Cc3ccc(C)cc3)CC2)ccc1O .
-- reply 271 µM (active)

-- ask Name the recorded IC50 for N/C(=N\[N+](=O)[O-])N/N=C/c1ccc(O)cc1 .
-- reply 20.4 µM (active)

-- ask Name the recorded IC50 for O=S(=O)(O)c1cc(Cl)cc(N=Nc2ccc(O)cc2O)c1O .
-- reply 83.7 µM (active)

-- ask Name the recorded IC50 for Oc1ccc(/N=C(\S)Nc2ccc(O)cc2)cc1 .
-- reply 41.7 µM (active)

-- ask Name the recorded IC50 for CCN(CC)c1ccc(/C=N/N2CCN(Cc3ccccc3)CC2)cc1 .
-- reply 78.7 µM (active)

-- ask Name the recorded IC50 for O=C1NC(=O)C(=Cc2coc3ccc(O)cc3c2=O)C(=O)N1 .
-- reply 150 µM (active)

-- ask Name the recorded IC50 for Cc1ccccc1CN1CCN(C(=O)c2cccc3ccccc23)CC1 .
-- reply 215 µM (active)

Origin of values: ChEMBL document CHEMBL1201862
